Reference source for all entries: DBAASP

MIC values for the molecules below.
tested on: Pseudomonas aeruginosa ATCC 27853; test: ≥ marks a high value that may be exact or a test limit, other limits are often not marked, values filed in µg/mL are converted to µM
measured-property: MIC

CC(C)C[C@H](NC(=O)[C@H](CC(C)C)NC(=O)[C@H](CCCCN)NC(=O)[C@H](CCCCN)NC(=O)[C@H](CC(C)C)NC(=O)[C@H](CCC(=O)O)NC(=O)[C@H](CCCCN)NC(=O)[C@H](CC(C)C)NC(=O)[C@@H](N)Cc1ccccc1)C(N)=O [FLKELKKLL] : 14.1 µM
CC[C@H](C)[C@H](NC(=O)[C@H](CO)NC(=O)[C@H](C)NC(=O)[C@@H](NC(=O)CNC(=O)[C@H](CO)NC(=O)[C@@H](NC(=O)[C@@H](NC(=O)[C@H](Cc1cnc[nH]1)NC(=O)[C@@H]1CCCN1C(=O)[C@@H](NC(=O)[C@H](CC(C)C)NC(=O)[C@H](CO)NC(=O)[C@H](CC(C)C)NC(=O)[C@@H](N)Cc1ccccc1)[C@@H](C)CC)[C@@H](C)CC)C(C)C)C(C)C)C(=O)N[C@@H](C)C(=O)N[C@@H](CCCCN)C(=O)N[C@@H](Cc1cnc[nH]1)C(=O)N[C@@H](Cc1ccccc1)C(N)=O [FLSLIPHIVSGVASIAKHF] : > 100 µM
CC[C@H](C)[C@H](NC(=O)[C@H](Cc1c[nH]c2ccccc12)NC(=O)[C@@H](NC(=O)[C@H](Cc1c[nH]c2ccccc12)NC(=O)[C@@H]1CCCN1C(=O)[C@@H](NC(=O)[C@H](C)N)[C@@H](C)CC)[C@@H](C)CC)C(=O)N[C@@H](Cc1c[nH]c2ccccc12)C(=O)N[C@@H](CCCN=C(N)N)C(=O)N[C@@H](CC(C)C)C(=O)N[C@@H](CC(C)C)C(=O)N[C@@H](CCCN=C(N)N)C(=O)N[C@@H](CCCCN)C(=O)NCC(=O)O [AIPWIWIWRLLRKG] : 0.4 µM
CC[C@H](C)[C@H](NC(=O)CNC(=O)[C@H](CO)NC(=O)[C@H](CC(C)C)NC(=O)[C@H](CC(C)C)NC(=O)CN)C(=O)N[C@@H](CC(C)C)C(=O)NCC(=O)N[C@@H](C)C(=O)NCC(=O)N[C@@H](CCCCN)C(=O)N[C@@H](CCCCN)C(=O)N[C@H](C(=O)N[C@H](C(=O)N[C@H]1CSSC[C@@H](C(=O)O)NC(=O)[C@H](CC(C)C)NC(=O)CNC(=O)[C@H](CO)NC(=O)[C@H](CC(C)C)NC(=O)CNC1=O)C(C)C)[C@@H](C)CC [GLLSGILGAGKKIVCGLSGLC] : 2.55 µM
CC[C@H](C)[C@H](NC(=O)[C@H](CCCN=C(N)N)NC(=O)[C@@H](N)Cc1ccccc1)C(=O)N[C@@H](CCCN=C(N)N)C(=O)N[C@H](C(=O)N[C@@H](CCCN=C(N)N)C(=O)N[C@H](C(N)=O)C(C)C)C(C)C [FRIRVRV] : 16 µM

---

This document collects MIC values reported for Bacillus subtilis.
measured-property: MIC (µM)

CC[C@H](C)[C@H](NC(=O)[C@H](CC(C)C)NC(=O)[C@H](CC(=O)O)NC(=O)[C@H](CCC(N)=O)NC(=O)[C@H](CCC(N)=O)NC(=O)[C@H](CC(C)C)NC(=O)[C@H](CCC(=O)O)NC(=O)[C@@H]1CCCN1C(=O)[C@@H](N)Cc1ccc(O)cc1)C(=O)N[C@@H](C)C(=O)N[C@@H](CCCN=C(N)N)C(=O)N[C@@H](CC(C)C)C(=O)N[C@@H](CC(C)C)C(=O)O : 1.97
CC[C@H](C)[C@@H]1NC(=O)[C@H](CO)NC(=O)[C@H](CCCCN)NC(=O)[C@H]([C@@H](C)O)NC(=O)[C@H](Cc2c[nH]c3ccccc23)NC(=O)[C@@H](NC(=O)CNC(=O)[C@H](CCCCN)NC(=O)[C@@H](N)CC(C)C)CSSC[C@@H](C(=O)N[C@@H](Cc2ccccc2)C(=O)O)NC(=O)[C@@H]2CCCN2C(=O)[C@H](CCCCN)NC(=O)[C@@H]2CCCN2C(=O)[C@@H]2CCCN2C1=O : 1.37
